# Assayed System: recombinant human CDK1/Cyclin B complex (Homo sapiens, UniProt P06493)
# Construct: M15 E. coli for the Rb substrate
# Sequence (P06493 whole entry): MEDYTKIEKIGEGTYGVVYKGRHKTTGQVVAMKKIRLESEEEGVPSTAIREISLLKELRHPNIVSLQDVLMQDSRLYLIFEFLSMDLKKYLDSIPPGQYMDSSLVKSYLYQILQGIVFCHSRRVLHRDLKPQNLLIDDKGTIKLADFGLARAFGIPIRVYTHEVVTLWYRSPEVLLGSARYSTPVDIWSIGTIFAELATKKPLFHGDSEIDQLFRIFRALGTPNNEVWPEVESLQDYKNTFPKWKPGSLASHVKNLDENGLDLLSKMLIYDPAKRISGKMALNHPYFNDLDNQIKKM
# Sequence (P14635 whole entry partner): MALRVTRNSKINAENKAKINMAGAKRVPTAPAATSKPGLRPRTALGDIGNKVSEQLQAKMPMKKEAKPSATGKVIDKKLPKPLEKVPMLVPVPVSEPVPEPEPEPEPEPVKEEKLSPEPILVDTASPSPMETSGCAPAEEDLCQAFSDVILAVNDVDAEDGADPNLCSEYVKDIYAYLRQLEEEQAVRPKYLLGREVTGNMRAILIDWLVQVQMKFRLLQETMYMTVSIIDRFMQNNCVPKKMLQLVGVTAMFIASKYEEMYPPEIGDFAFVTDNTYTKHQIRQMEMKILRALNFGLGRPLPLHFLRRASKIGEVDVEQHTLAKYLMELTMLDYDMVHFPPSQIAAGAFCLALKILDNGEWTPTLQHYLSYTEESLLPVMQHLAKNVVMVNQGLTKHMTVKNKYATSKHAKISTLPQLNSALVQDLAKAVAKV
# Measurement Description: CDK1/Cyclin B kinase assay (FlashPlate or HTRF)
# Test Conditions: Rb protein substrate, Ki=IC50/(1+[S]/Km)
Ki: recorded values
Number only, in nM; omit the unit.

>>> reported_value("CC(=O)NC1=NC(=O)/C(=C/c2ccc3ncccc3n2)N1 [Example 16]")
1180
>>> reported_value("O=C1N=C(NCc2ccc(F)c(Cl)c2)S/C1=C\\c1ccc2ncccc2n1 [Example 8]")
279
>>> reported_value("O=C1N=C(NCc2ccc(C(F)(F)F)cc2C(F)(F)F)N/C1=C\\c1ccc2ncccc2n1 [Example 20]")
735
>>> reported_value("NC1=NC(=O)/C(=C/c2ccc3ncccc3n2)S1 [Example 4]")
4670

As a next step, examine the compound that follows.
[Q] Fill in: Ki on recombinant human CDK1/Cyclin B complex (Homo sapiens, UniProt P06493), entry Cc1cccc(Cl)c1CNC1=NC(=O)/C(=C/c2ccc3ncccc3n2)S1 [Example 12]
[A] 31.7
